Measurement target: T1, recombinant human ROR1 extracellular domain (human, UniProt Q01973 30-406)
T1 construct: biotinylated for the filter lifts; also called huROR1-ECD; human ROR1-ECD
T1 sequence (Q01973 30-406 limits assumed): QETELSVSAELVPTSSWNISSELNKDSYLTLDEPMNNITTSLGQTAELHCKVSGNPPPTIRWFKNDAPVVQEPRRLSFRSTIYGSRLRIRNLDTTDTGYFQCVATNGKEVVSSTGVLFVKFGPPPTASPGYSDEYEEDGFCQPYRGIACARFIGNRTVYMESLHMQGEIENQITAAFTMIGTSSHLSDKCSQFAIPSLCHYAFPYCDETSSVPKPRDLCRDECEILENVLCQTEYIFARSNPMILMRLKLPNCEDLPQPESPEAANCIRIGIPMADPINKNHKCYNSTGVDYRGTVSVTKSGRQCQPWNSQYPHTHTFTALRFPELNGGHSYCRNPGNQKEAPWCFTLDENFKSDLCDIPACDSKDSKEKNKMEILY
Assay overview: ELISA with prolonged wash, soluble Fab on coated huROR1-ECD
Overview of reported Kd across a group of binders:

Binder: Ab1 Fab variant H1 T32A + H2 F58V, N71H (Fab, V domains shown, Fab) VH: QVQLQESGPGLVKPSQTLSLTCTVSGYAFAAYNIHWVRQAPGQGLEWMGSVDPYDGGSSYHQKFKDRLTISKDTSKNQVVLTMTNMDPVDTATYYCARGWYYFDYWGHGTLVTVSS VL: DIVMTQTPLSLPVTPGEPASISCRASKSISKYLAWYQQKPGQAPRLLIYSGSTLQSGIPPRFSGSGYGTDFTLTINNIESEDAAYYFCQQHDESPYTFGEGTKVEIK
Kd: 2.4 nM

Binder: Ab1 Fab variant H1 T32A + H2 F58I, N71H (Fab, V domains shown, Fab) VH: QVQLQESGPGLVKPSQTLSLTCTVSGYAFAAYNIHWVRQAPGQGLEWMGSIDPYDGGSSYHQKFKDRLTISKDTSKNQVVLTMTNMDPVDTATYYCARGWYYFDYWGHGTLVTVSS VL: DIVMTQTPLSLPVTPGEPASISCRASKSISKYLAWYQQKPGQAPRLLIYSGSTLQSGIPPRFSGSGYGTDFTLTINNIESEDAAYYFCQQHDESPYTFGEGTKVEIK
Kd: 2.2 nM

Binder: Ab1 Fab variant H1 T32A + H2 F58I, S69V (Fab, V domains shown, Fab) VH: QVQLQESGPGLVKPSQTLSLTCTVSGYAFAAYNIHWVRQAPGQGLEWMGSIDPYDGGSVYNQKFKDRLTISKDTSKNQVVLTMTNMDPVDTATYYCARGWYYFDYWGHGTLVTVSS VL: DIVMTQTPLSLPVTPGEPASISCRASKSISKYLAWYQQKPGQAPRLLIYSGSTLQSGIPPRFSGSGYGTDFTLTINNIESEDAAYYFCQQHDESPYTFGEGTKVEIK
Kd: 8.5 nM
